Sourced from ChEMBL document CHEMBL4308831

test target: Melanocortin receptor 4 (Homo sapiens)
Sequence (P32245 whole entry): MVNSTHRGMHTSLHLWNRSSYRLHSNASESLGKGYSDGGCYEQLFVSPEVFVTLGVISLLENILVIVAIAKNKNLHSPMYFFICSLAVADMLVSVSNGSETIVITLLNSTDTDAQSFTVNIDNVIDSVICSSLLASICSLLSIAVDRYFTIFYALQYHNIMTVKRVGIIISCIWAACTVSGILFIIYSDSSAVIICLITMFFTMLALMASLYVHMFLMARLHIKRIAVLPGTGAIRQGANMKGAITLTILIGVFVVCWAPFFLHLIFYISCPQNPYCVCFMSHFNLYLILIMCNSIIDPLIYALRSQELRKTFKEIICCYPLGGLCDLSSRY
method description: Antagonist activity at human FLAG-tagged MC4R expressed in HEK293 cells assessed as reduction in NDP-MSH-induced intracellular cAMP accumulation after 2 hrs by AlphaScreen assay
Assay type: functional, cell-based
test parameters: read-out: pA2 (converted)
Non-standard residues stand in square brackets, D forms with d. Residues, ends and D or L forms follow the SMILES beside them. d2Nal = N[C@H](Cc1ccc2ccccc2c1)C(=O)O
quantity measured: Kb (nM)

// below: answered compounds
[[record]]
compound = "N=C(N)NCCC[C@H](NC(=O)[C@@H](Cc1ccc2ccccc2c1)NC(=O)[C@H](Cc1cnc[nH]1)NC(=O)COCC(=O)NCCCOCCOCCOCCCN)C(=O)N[C@@H](Cc1c[nH]c2ccccc12)C(N)=O"
test_target = "Melanocortin receptor 4 (Homo sapiens)"
quantity_measured = "Kb"
recorded_number = 13.5

[[record]]
compound = "CC(=O)N[C@@H](Cc1cnc[nH]1)C(=O)N[C@H](Cc1ccc2ccccc2c1)C(=O)N[C@@H](CCCNC(=N)N)C(=O)N[C@@H](Cc1c[nH]c2ccccc12)C(=O)NCCCOCCOCCOCCCNC(=O)COCC(=O)N[C@@H](Cc1cnc[nH]1)C(=O)N[C@H](Cc1ccc2ccccc2c1)C(=O)N[C@@H](CCCNC(=N)N)C(=O)N[C@@H](Cc1c[nH]c2ccccc12)C(N)=O"
test_target = "Melanocortin receptor 4 (Homo sapiens)"
quantity_measured = "Kb"
recorded_number = 15.8

[[record]]
compound = "CC(=O)N[C@@H](Cc1cnc[nH]1)C(=O)N[C@H](Cc1ccc2ccccc2c1)C(=O)N[C@@H](CCCNC(=N)N)C(=O)N[C@@H](Cc1c[nH]c2ccccc12)C(=O)N1CCC[C@H]1C(=O)NCC(=O)N1CCC[C@H]1C(=O)NCC(=O)N1CCC[C@H]1C(=O)NCC(=O)N1CCC[C@H]1C(=O)NCC(=O)N1CCC[C@H]1C(=O)NCC(=O)N1CCC[C@H]1C(=O)NCC(N)=O (Ac-H[d2Nal]RWPGPGPGPGPGPG-NH2)"
test_target = "Melanocortin receptor 4 (Homo sapiens)"
quantity_measured = "Kb"
recorded_number = 52.5


A. CC(=O)N[C@@H](Cc1cnc[nH]1)C(=O)N[C@H](Cc1ccc2ccccc2c1)C(=O)N[C@@H](CCCNC(=N)N)C(=O)N[C@@H](Cc1c[nH]c2ccccc12)C(N)=O
B. CC(=O)N[C@@H](Cc1cnc[nH]1)C(=O)N[C@H](Cc1ccc2ccccc2c1)C(=O)N[C@@H](CCCNC(=N)N)C(=O)N[C@@H](Cc1c[nH]c2ccccc12)C(=O)NCCCOCCOCCOCCCNC(=O)COCC(N)=O
Recorded Kb values differ for A and B ; which one is higher? Please reply using the label of the selected record. A
(A: 15.1 nM, B: 7.59 nM)

----------
test target: Melanocortin receptor 4 (Homo sapiens)
method description: Selectivity ratio of EC50 for agonist activity at human FLAG-tagged MC4R expressed in HTLA cells assessed as induction of beta-arrestin recruitment to EC50 for agonist activity at human FLAG-tagged MC4R expressed in HEK293 cells assessed as induction of intracellular cAMP accumulation
Type: functional, cell-based
quantity measured: Ratio EC50
In your answer, state the number alone without any accompanying words.

Given the entry CC(=O)N[C@@H](Cc1cnc[nH]1)C(=O)N[C@H](Cc1ccc2ccccc2c1)C(=O)N[C@@H](CCCNC(=N)N)C(=O)N[C@@H](Cc1c[nH]c2ccccc12)C(=O)NCCCOCCOCCOCCCNC(=O)COCC(=O)NCCCOCCOCCOCCCNC(=O)COCC(=O)N[C@@H](Cc1cnc[nH]1)C(=O)N[C@H](Cc1ccccc1)C(=O)N[C@@H](CCCNC(=N)N)C(=O)N[C@@H](Cc1c[nH]c2ccccc12)C(N)=O , report its measured Ratio EC50. 3000
